testedSystem: Type-1 angiotensin II receptor (Oryctolagus cuniculus) (UniProt P34976)
Sequence (P34976 whole entry): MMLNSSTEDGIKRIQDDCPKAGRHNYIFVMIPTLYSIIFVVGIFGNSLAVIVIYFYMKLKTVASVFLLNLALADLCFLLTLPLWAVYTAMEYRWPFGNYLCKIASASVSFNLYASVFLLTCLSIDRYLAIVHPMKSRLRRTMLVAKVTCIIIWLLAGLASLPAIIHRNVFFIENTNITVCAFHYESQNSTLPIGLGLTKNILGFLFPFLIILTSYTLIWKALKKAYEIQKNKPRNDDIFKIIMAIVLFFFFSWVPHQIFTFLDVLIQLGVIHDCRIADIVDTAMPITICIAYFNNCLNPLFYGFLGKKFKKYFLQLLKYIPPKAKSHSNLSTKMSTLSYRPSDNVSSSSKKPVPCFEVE
protocol: In vitro for its antagonistic activity against angiotensin II type 1 receptor in Rabbit Aorta
Type: functional, tissue-based
measurementType: pKB

>>> recordedmeasurement("CCCCc1nc(Cl)c(CNC(N)=O)n1Cc1ccc2oc(-c3ccccc3-c3nn[nH]n3)c(Br)c2c1")
8.8

(P) CCCCc1nc(Cl)c(C(=O)O)n1Cc1ccc2oc(-c3ccccc3-c3nn[nH]n3)c(Cl)c2c1
(Q) CCCCc1nc(Cl)c(C(=O)O)n1Cc1ccc2oc(-c3ccccc3-c3nnn(C)n3)c(Br)c2c1
*Q* Which entry has a larger number for pKB, P or Q ? Field: selected label. Fill in the label of the entry you choose.
*A* P
(P: 10.5, Q: 6.4)

* * *

testedSystem: Type-1 angiotensin II receptor (Oryctolagus cuniculus)
protocol: In vitro for its antagonistic activity against angiotensin II type 1 receptor in Rabbit Aorta
Format: functional, tissue-based
measurementType: pKB

>>> recordedmeasurement("CCCCc1nc(Cl)c(C(=O)O)n1Cc1ccc2oc(-c3ccccc3-c3nn[nH]n3)c(C(F)(F)F)c2c1")
10
>>> recordedmeasurement("CCCCc1nc(Cl)c(C(=O)OCC)n1Cc1ccc2oc(-c3ccccc3-c3nn[nH]n3)c(Br)c2c1")
8.3
>>> recordedmeasurement("CCCCc1nc(Cl)c(C(=O)NC)n1Cc1ccc2oc(-c3ccccc3-c3nn[nH]n3)c(Br)c2c1")
9.2
>>> recordedmeasurement("CCCCc1nc(Cl)c(C(=O)O)n1Cc1ccc2oc(-c3ccccc3-c3nn[nH]n3)c(C(C)(C)C)c2c1")
8.3
>>> recordedmeasurement("CCCCc1nc(Cl)c(C(=O)O)n1Cc1ccc2oc(-c3ccccc3C(=O)Nc3nn[nH]n3)c(Br)c2c1")
8.8
>>> recordedmeasurement("CCCCc1nc(Cl)c(C(=O)N(C)C)n1Cc1ccc2oc(-c3ccccc3-c3nn[nH]n3)c(Br)c2c1")
8.8
>>> recordedmeasurement("CCCCc1nc(Cl)c(C(=O)O)n1Cc1ccc2oc(-c3ccccc3C(N)=O)c(Br)c2c1")
7.2
>>> recordedmeasurement("CCCCc1nc(Cl)c(CC(=O)O)n1Cc1ccc2oc(-c3ccccc3-c3nn[nH]n3)c(Br)c2c1")
9.8
>>> recordedmeasurement("CCCCc1nc(Cl)c(C(=O)O)n1Cc1ccc2oc(-c3ccccc3-c3nnnn3C)c(Br)c2c1")
7.3
>>> recordedmeasurement("CCCCc1nc(Cl)c(C(=O)O)n1Cc1ccc2oc(-c3ccccc3-c3nn[nH]n3)c(OC)c2c1")
9.6
>>> recordedmeasurement("CCCCc1nc(Cl)c(C(=O)O)n1Cc1ccc2oc(-c3ccccc3C(=O)OCC)c(Br)c2c1")
7.8
>>> recordedmeasurement("CCCCc1nc(Cl)c(C(N)=O)n1Cc1ccc2oc(-c3ccccc3-c3nn[nH]n3)c(Br)c2c1")
9
>>> recordedmeasurement("CCCCc1nc(Cl)c(C(=O)O)n1Cc1ccc2oc(-c3ccccc3NS(=O)(=O)C(F)(F)F)c(Br)c2c1")
7.8

// data source = ChEMBL document CHEMBL1149991
